assay: In vivo PK study in mice; settings: male, BALB/c, mouse, plasma, iv, 5 mg/kg
Measured Endpoint: half-life (min)
Please state the figure in min; there is no need to write the unit.

half-life lookup needed for `Cc1cnc(Nc2ccc(OCCN3CCCC3)cc2)nc1Nc1cccc(S(=O)(=O)NC(C)(C)C)c1` , thanks.
18

###

Reported values of IC50 for individual entries
molecular target: JAK2 (Homo sapiens, UniProt O60674); construct: 0.05–0.42 ng JAK2, 2 μM peptide substrate (Tyr06); test: JAK2 enzyme assay (Z'-LYTE kinase assay kit); format: biochemical; settings: JAK2 enzyme; mean of 3 replicates; read-out: IC50/μM mean, enzyme inhibitory activity
Sequence (O60674 whole entry): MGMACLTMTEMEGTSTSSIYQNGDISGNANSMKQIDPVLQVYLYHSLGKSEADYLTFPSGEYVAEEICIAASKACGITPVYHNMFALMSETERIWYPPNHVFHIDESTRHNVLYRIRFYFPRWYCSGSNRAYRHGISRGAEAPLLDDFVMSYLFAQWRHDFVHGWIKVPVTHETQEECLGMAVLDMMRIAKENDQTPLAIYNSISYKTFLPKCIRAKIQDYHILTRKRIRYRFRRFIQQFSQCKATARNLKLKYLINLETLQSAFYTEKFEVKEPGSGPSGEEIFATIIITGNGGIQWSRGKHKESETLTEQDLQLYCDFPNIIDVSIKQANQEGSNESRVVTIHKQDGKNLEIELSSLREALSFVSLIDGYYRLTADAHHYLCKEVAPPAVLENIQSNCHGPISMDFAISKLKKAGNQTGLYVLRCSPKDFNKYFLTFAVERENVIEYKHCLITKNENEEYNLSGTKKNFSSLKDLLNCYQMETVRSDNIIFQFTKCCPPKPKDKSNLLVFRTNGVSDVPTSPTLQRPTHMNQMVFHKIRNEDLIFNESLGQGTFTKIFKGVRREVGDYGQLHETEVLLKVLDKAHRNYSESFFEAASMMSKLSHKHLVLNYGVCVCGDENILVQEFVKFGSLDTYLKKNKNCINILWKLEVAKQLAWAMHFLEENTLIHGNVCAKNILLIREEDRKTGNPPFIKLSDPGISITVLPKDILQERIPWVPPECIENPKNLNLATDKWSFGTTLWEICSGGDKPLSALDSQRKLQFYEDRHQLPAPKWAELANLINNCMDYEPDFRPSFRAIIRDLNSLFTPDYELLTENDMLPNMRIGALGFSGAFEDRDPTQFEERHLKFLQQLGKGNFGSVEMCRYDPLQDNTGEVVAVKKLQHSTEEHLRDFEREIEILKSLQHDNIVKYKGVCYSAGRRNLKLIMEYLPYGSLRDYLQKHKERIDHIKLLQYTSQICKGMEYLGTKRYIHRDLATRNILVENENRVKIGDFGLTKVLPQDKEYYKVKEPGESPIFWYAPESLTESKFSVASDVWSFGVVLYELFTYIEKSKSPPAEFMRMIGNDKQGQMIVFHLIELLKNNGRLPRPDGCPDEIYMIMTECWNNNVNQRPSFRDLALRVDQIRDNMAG
Please state the figure in µM; there is no need to write the unit.

Sample answers from the record:
Cc1cnc2nc1Nc1cccc(c1)COCc1cc(ccc1OCCN1CCCC1)N2    0.07
Cc1cnc2nc1Nc1cccc(c1)C(=O)N(C)Cc1cc(ccc1OCCN1CCCC1)N2    0.364

IC50 lookup needed for `Cc1cnc2nc1Nc1cccc(c1)COCC=CCOCc1cc(ccc1OCCN1CCCC1)N2` , thanks.
0.006

###

assay: In vivo PK study in mice; settings: male, BALB/c, mouse, plasma, po, 5 mg/kg
Measured Endpoint: Tmax (h)
Please state the figure in h; there is no need to write the unit.

Tmax lookup needed for Cc1cnc(Nc2ccc(OCCN3CCCC3)cc2)nc1Nc1cccc(S(=O)(=O)NC(C)(C)C)c1 [Fedratinib] , thanks.
1

###

assay: In vivo PK study in mice; details: male, BALB/c, mouse, plasma, iv, 5 mg/kg
Measured Endpoint: Tmax (min)
Please state the figure in min; there is no need to write the unit.

Tmax lookup needed for `Cc1cnc(Nc2ccc(OCCN3CCCC3)cc2)nc1Nc1cccc(S(=O)(=O)NC(C)(C)C)c1` , thanks.
4.98

###

assay: In vivo PK study in mice; details: male, BALB/c, mouse, plasma, oral, 5 mg/kg
Measured Endpoint: bioavailability (%)
Please state the figure in %; there is no need to write the unit.

bioavailability lookup needed for `Cc1cnc(Nc2ccc(OCCN3CCCC3)cc2)nc1Nc1cccc(S(=O)(=O)NC(C)(C)C)c1` , thanks.
11.7

###

test: In vivo PK study in mice; settings: male, BALB/c, mouse, plasma, iv, 5 mg/kg
Measured Endpoint: Cmax (ng/mL)
Please state the figure in ng/mL; there is no need to write the unit.

Cmax lookup needed for Cc1cnc(Nc2ccc(OCCN3CCCC3)cc2)nc1Nc1cccc(S(=O)(=O)NC(C)(C)C)c1 [Fedratinib] , thanks.
275

###

test: In vivo PK study in mice; conditions: male, BALB/c, mouse, plasma, iv, 5 mg/kg
Measured Endpoint: AUC(0-inf) (ng·h/mL)
Please state the figure in ng·h/mL; there is no need to write the unit.

AUC(0-inf) lookup needed for `Cc1cnc(Nc2ccc(OCCN3CCCC3)cc2)nc1Nc1cccc(S(=O)(=O)NC(C)(C)C)c1` , thanks.
227

###

experiment: In vivo PK study in mice; details: male, BALB/c, mouse, plasma, po, 5 mg/kg
Measured Endpoint: AUC(0-inf) (ng·h/mL)
Please state the figure in ng·h/mL; there is no need to write the unit.

AUC(0-inf) lookup needed for `Cc1cnc(Nc2ccc(OCCN3CCCC3)cc2)nc1Nc1cccc(S(=O)(=O)NC(C)(C)C)c1` , thanks.
50.2

###

assay: In vivo PK study in mice; settings: male, BALB/c, mouse, plasma, po, 5 mg/kg;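 also: mice dosed intravenously or orally, three animals per time point, plasma drug levels quantified by LC-MS/MS, PK parameters derived by noncompartmental analysis in Phoenix WinNonLin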
Measured Endpoint: Cmax (ng/mL)
Please state the figure in ng/mL; there is no need to write the unit.

Cmax lookup needed for `Cc1cnc(Nc2ccc(OCCN3CCCC3)cc2)nc1Nc1cccc(S(=O)(=O)NC(C)(C)C)c1` , thanks.
6.81

Reference source for all entries: paper PMC10382584
